The reported measurements were obtained from paper PMC7400446.

# protocol_description: Cytotoxicity assay (resazurin)
# Format: cell-based
# recorded_conditions: human; HEK293 cells, 20 h; unit not given in Table 1; read-out: CC50 (concentration at 50% cytotoxicity)
quantity_name: CC50 at 20 h (µg/mL)
Answers are plain numbers, in µg/mL.

Clc1c2n[se]sc-2c(Cl)c1Cl [Compound 11a]
0.52
ClC1=C2S[Se]N=C2c2ccccc2C(Cl)=C1Cl
0.48

Let us move to another entry and its CC50 at 20 h.
Consider CCOC(=O)c1c2n[se]sc-2c(Cl)c1Cl [Compound 11c] . Its measured CC50 at 20 h is 7
